protocol-text: In vitro metabolism in mouse jejunum loop fluid
Format: in vitro ADME
particulars: mouse jejunum loop fluid, pH 8; mouse jejunal loop fluid, 37° C., after 120 minutes, 100 μg/mL; read-out: percent remaining
Description: The purpose of this study was to determine the stability of phosphorylated peptides in mouse jejunal loop fluid. […] The isotopically labeled peptide 2 was synthesized with ^13C, ^15N-labeled alanine and leucine (i.e., with a sequence CCpS[^13C6, ^15N]LCCNP[^13C6, ^15N]ACTGC). […] All samples were analyzed using an Applied Biosystems/MDS SCIEX API 4000 triple quadrupole mass spectrometer equipped with a high-performance liquid chromatography (HPLC) system. […]
Positions of bridges follow the written chain, without caps; N, C: chain ends. Non-standard residues stand in square brackets, D forms with d. Residues, ends and D or L forms follow the SMILES beside them. pS = N[C@@H](COP(=O)(O)O)C(=O)O
measured-metric: remaining at 2 h, 100 μg/mL (%)
Give the number; % is assumed, so skip it.

CC(C)C[C@@H]1NC(=O)[C@H](COP(=O)(O)O)NC(=O)[C@@H]2CSSC[C@@H]3NC(=O)[C@H](C)NC(=O)[C@@H]4CCCN4C(=O)[C@H](CC(N)=O)NC(=O)[C@H](CSSC[C@H](N)C(=O)N2)NC(=O)[C@H](CSSC[C@@H](C(=O)O)NC(=O)CNC(=O)[C@H]([C@@H](C)O)NC3=O)NC1=O [Peptide 2, CCpSLCCNPACTGC] (H-CC[pS]LCCNPACTGC-OH; disulfide 1-6, 2-10, 5-13 (inferred); N-terminus and C-terminus assumed) : 5.3

Name the recorded remaining at 2 h, 100 μg/mL for CC(C)C[C@@H]1NC(=O)[C@H](CO)NC(=O)[C@@H]2CSSC[C@@H]3NC(=O)[C@H](C)NC(=O)[C@@H]4CCCN4C(=O)[C@H](CC(N)=O)NC(=O)[C@H](CSSC[C@H](N)C(=O)N2)NC(=O)[C@H](CSSC[C@@H](C(=O)O)NC(=O)CNC(=O)[C@H]([C@@H](C)O)NC3=O)NC1=O [Dephospho-Peptide 2, CCSLCCNPACTGC] (H-CCSLCCNPACTGC-OH; disulfide 1-6, 2-10, 5-13 (inferred); N-terminus and C-terminus assumed) .
5.6

----------
Tested on: calf intestinal alkaline phosphatase (CIP)
Construct: purchased New England BioLabs, Ipswich, Mass; M0290S
protocol-text: Alkaline phosphatase reaction (dephosphorylation of peptide substrates, LCMS)
Format: in vitro ADME
particulars: calf intestinal alkaline phosphatase (CIP); Alkaline phosphatase pH 8, 90 minutes at 37° C.
Experimental: For the alkaline phosphatase reactions, peptide stocks were prepared at 1 mg/mL in 0.1 M Tris-HCl pH 8, which were stored at −20° C. until assays were conducted. […] Control reactions were assembled for enzyme activity containing 10 mM p-nitrophenylphosphate in place of peptide. After incubation, the reactions were diluted with 0.1 mL of 100 mM borate buffer pH 9 and read at the absorbance of 405 nm to monitor p-nitrophenol appearance.
Positions of bridges follow the written chain, without caps; N, C: chain ends. Non-standard residues stand in square brackets, D forms with d. Residues, ends and D or L forms follow the SMILES beside them. pS = N[C@@H](COP(=O)(O)O)C(=O)O
measured-metric: remaining at 1.5 h, 0.1 mg/mL (%)
Give the number; % is assumed, so skip it.

Name the recorded remaining at 1.5 h, 0.1 mg/mL for CC(C)C[C@@H]1NC(=O)[C@H](COP(=O)(O)O)NC(=O)[C@@H]2CSSC[C@@H]3NC(=O)[C@H](C)NC(=O)[C@@H]4CCCN4C(=O)[C@H](CC(N)=O)NC(=O)[C@H](CSSC[C@H](N)C(=O)N2)NC(=O)[C@H](CSSC[C@@H](C(=O)N[C@@H](Cc2ccc(O)cc2)C(=O)O)NC(=O)CNC(=O)[C@H]([C@@H](C)O)NC3=O)NC1=O [Peptide 1, CCpSLCCNPACTGCY] (H-CC[pS]LCCNPACTGCY-OH; disulfide 1-6, 2-10, 5-13 (inferred); N-terminus and C-terminus assumed) .
0

This collection of values is drawn from patent US20140179607A9.
